Test system: human lung cancer strain NCI-H441
Assay type: cell-based
Where a SMILES comes first, the peptide text is derived from it. Bridges are numbered along the chain shown (N, C = ends). [ ]: non-standard residue; d: D form. hPhe(3-Cl-4-CF3) = N[C@@H](CCc1ccc(C(F)(F)F)c(Cl)c1)C(=O)O; NPrPhe(4-CF3) = CCCN[C@@H](Cc1ccc(C(F)(F)F)cc1)C(=O)O; NMeGly(cPent) = CN[C@H](C(=O)O)C1CCCC1; Hyp = O=C(O)[C@@H]1C[C@@H](O)CN1; NMeL = CN[C@@H](CC(C)C)C(=O)O; Ac5c = NC1(C(=O)O)CCCC1; Sar = CNCC(=O)O
quantityName: pIC50
Would you please state pIC50, meaning minus log10 of the concentration in mol/L, as a bare number?

These solved cases illustrate the format of a correct answer.
compound	reading
CC[C@H](C)[C@@H]1NC(=O)[C@@H]2CCCCCCc3ccc(cc3)C[C@@H](C(=O)N(C)CC(=O)N[C@@H](CCc3ccc(C(F)(F)F)c(OC)c3)C(=O)N3C[C@H](OC4CCC4)C[C@H]3C(=O)NC3(CC(C)(C)C3)C(=O)N(C)[C@@H](C3CCCC3)C(=O)N(C)[C@H](C(=O)N(C)C)CC(=O)N2C)N2CC/C=C\C[C@@H](C2=O)N(C)C(=O)CN(C)C1=O	8.35
CCC(CC)[C@H]1C(=O)N(C)[C@H](C(=O)N(C)C)CC(=O)N(C)[C@@H](COC)C(=O)N[C@@H]([C@@H](C)CC)C(=O)N(C)CC(=O)N(C)[C@H]2C/C=C\CCN(C2=O)[C@@H](Cc2ccc(C)cc2)C(=O)N(C)CC(=O)N[C@@H](CCc2ccc(C(F)(F)F)c(OC)c2)C(=O)N2CCOC[C@H]2C(=O)NC2(CC(C)(C)C2)C(=O)N1C	6.98

Kindly state the measured pIC50 obtained for CCCN1C(=O)CN(C)C(=O)CN(C)C(=O)[C@H]([C@@H](C)CC)NC(=O)[C@H](CC(C)C)N(C)C(=O)C[C@@H](C(=O)N(C)C)NC(=O)[C@H](C2CCCC2)N(C)C(=O)C2(CCCC2)NC(=O)[C@@H]2C[C@@H](OCC)CN2C(=O)[C@H](CCc2ccc(C(F)(F)F)c(Cl)c2)NC(=O)CN(C)C(=O)[C@@H]1Cc1ccc(C(F)(F)F)cc1 [PP0359] ([NMeL]I[Sar][Sar][NPrPhe(4-CF3)][Sar][hPhe(3-Cl-4-CF3)][Hyp](Et)[Ac5c][NMeGly(cPent)]D-NMe2; lactam N-11) with human lung cancer strain NCI-H441. 7.48
